Where do the numbers come from? From patent EP0923551B1.

IC50 values for the compounds below.
Molecular target: dopamine autoreceptor (Rattus norvegicus)
Experiment: Affinity for the dopamine autoreceptor, 3H-quinpirole binding in homogenized rat striatal brain tissue
Conditions: 3H-quinpirole, homogenized rat striatal brain tissue; read-out: IC50 (nM) D2 Quin.
recorded metric: IC50

1) O=C1Cc2c(OCCNCc3ccc(F)cc3)ccc(Cl)c2N1 | 2.54 nM
2) CN(CCCC(=O)c1ccc(F)cc1)CCOc1cccc2c1CC(=O)N2 | 6.22 nM
3) O=C1Cc2c(OCCN3Cc4ccccc4C3)ccc(F)c2N1 | 3.57 nM
4) CNCCOc1cccc2c1CC(=O)N2 | 4.31 nM
5) CN(CCOc1ccc(Cl)c2c1CC(=O)N2)Cc1ccccc1 | 3.68 nM
6) Cc1ccc(CNCCOc2ccc(Cl)c3c2CC(=O)N3)cc1 | 1.1 nM
7) O=C1Cc2c(OCCNCC3CCCCC3)ccc(F)c2N1 | 1.58 nM
8) O=C1Cc2c(OCCNCc3ccc(-c4ccccc4)cc3)ccc(Cl)c2N1 | 41.1 nM
9) O=C1Cc2c(OCCNCc3ccccc3)ccc(F)c2N1 | 0.91 nM
10) O=C1Cc2c(cccc2OCCNCCCCc2ccccc2)N1 | 0.45 nM
11) O=C1Cc2c(OCCNCc3ccc(-c4ccccc4)cc3)ccc(F)c2N1 | 11.1 nM
12) NCCOc1cccc2c1CC(=O)N2 | 13.9 nM
13) O=C1Cc2c(OCCNCc3ccccc3)ccc(Cl)c2N1 | 0.82 nM
14) O=C1Cc2c(OCCNCCCc3c[nH]c4ccccc34)ccc(F)c2N1 | 0.3 nM
15) O=C1Cc2c(OCCNCc3ccc(Cl)cc3)ccc(Cl)c2N1 | 2.81 nM
16) Cc1cccc(CN(CCOc2cccc3c2CC(=O)N3)Cc2cccc(C)c2)c1 | 31.2 nM
17) O=C1Cc2c(OCCN3CCc4ccccc4C3)ccc(Cl)c2N1 | 1.31 nM
18) O=C1Cc2c(OCCN3Cc4ccccc4C3)ccc(Cl)c2N1 | 0.55 nM
19) O=C1Cc2c(cccc2OCCNCc2ccccc2)N1 | 0.41 nM
20) O=C1Cc2c(OCCNCc3ccc4ccccc4c3)ccc(F)c2N1 | 1.27 nM
21) CN(CCOc1cccc2c1CC(=O)N2)Cc1ccccc1 | 1.52 nM
22) CCCCNCCOc1ccc(Cl)c2c1CC(=O)N2 | 1.89 nM
23) O=C1Cc2c(OCCN3CCc4ccccc4C3)ccc(F)c2N1 | 1.84 nM

---

Biological target: dopamine autoreceptor (Rattus norvegicus, UniProt P61169)
Sequence (P61169 whole entry): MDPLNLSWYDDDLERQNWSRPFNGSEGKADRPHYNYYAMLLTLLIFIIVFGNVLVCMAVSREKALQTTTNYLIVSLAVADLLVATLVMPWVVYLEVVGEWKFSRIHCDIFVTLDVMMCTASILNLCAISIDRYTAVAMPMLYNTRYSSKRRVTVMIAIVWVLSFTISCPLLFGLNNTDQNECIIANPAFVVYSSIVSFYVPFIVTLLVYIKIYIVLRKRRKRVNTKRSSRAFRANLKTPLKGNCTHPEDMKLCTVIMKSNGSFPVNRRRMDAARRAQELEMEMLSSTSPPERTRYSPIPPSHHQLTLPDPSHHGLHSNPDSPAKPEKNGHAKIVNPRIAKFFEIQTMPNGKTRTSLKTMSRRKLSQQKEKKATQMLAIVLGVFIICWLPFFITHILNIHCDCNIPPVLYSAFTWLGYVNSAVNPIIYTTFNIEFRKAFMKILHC
Test: Affinity for the dopamine autoreceptor, 3H-quinpirole binding in homogenized rat striatal brain tissue
Details: ratio of IC50 D2 Spiper to IC50 D2 Quin. (LowAg/HighAg, predicts intrinsic activity)
Response key: Met means Ratio >= 70; Not met means Ratio < 70.

1. O=C1Cc2c(OCCN3CCc4ccccc4C3)ccc(Cl)c2N1 | Not met
2. O=C1Cc2c(OCCNCc3ccc(Cl)cc3)ccc(Cl)c2N1 | Not met
3. Cc1cccc(CN(CCOc2cccc3c2CC(=O)N3)Cc2cccc(C)c2)c1 | Met
4. O=C1Cc2c(OCCNCc3ccccc3)ccc(F)c2N1 | Met

---

Target: dopamine autoreceptor (Rattus norvegicus)
Experiment: Affinity for the dopamine autoreceptor, 3H-quinpirole binding in homogenized rat striatal brain tissue
Details: ratio of IC50 D2 Spiper to IC50 D2 Quin. (LowAg/HighAg, predicts intrinsic activity)
Ratio values for the compounds below.
recorded metric: Ratio

1. CN(CCOc1cccc2c1CC(=O)N2)Cc1ccccc1 | 424
2. CN(CCOc1ccc(Cl)c2c1CC(=O)N2)Cc1ccccc1 | 63
3. O=C1Cc2c(OCCNCc3ccccc3)ccc(Cl)c2N1 | 44
4. CN(CCCC(=O)c1ccc(F)cc1)CCOc1cccc2c1CC(=O)N2 | 57
5. CNCCOc1cccc2c1CC(=O)N2 | 213
6. O=C1Cc2c(cccc2OCCNCc2ccccc2)N1 | 354
7. CCCCNCCOc1ccc(Cl)c2c1CC(=O)N2 | 76
8. NCCOc1cccc2c1CC(=O)N2 | 246
9. Cc1ccc(CNCCOc2ccc(Cl)c3c2CC(=O)N3)cc1 | 52
10. O=C1Cc2c(cccc2OCCNCCCCc2ccccc2)N1 | 55
11. O=C1Cc2c(OCCNCC3CCCCC3)ccc(F)c2N1 | 63
